For reference, the following Ki results for hMC2 receptor (Homo sapiens, UniProt Q01718) were taken from various sources.

Here's what some known entries look like.
[
  {
    "structure smiles": "CCOc1ncccc1-c1ccc2c(c1)N(C(=O)CCN)CC21CCN(c2ccc(C(F)(F)F)cc2C#N)CC1",
    "Ki": "0.01 to 0.1 µM"
  },
  {
    "structure smiles": "CCOc1ncccc1-c1ccc(N2CCN(C(=O)C3(c4ccccc4)CCCC3)C[C@H]2CC)c(C(=O)N[C@@H]2CCNC2)n1",
    "Ki": "< 0.01 µM"
  },
  {
    "structure smiles": "CCOc1ccccc1-c1ccc(N2CCN(C(=O)N3CCc4cccc(C#N)c43)C[C@H]2CC)c(C(=O)N[C@@H]2CCN(C)C2)n1",
    "Ki": "< 0.01 µM"
  }
]

Below is a list of compounds. For each, state its recorded Ki.
1. CCOc1ncccc1-c1ccc2c(n1)N(C[C@H](N)CO)CC21CCN(c2ccc(C(F)(F)F)cc2C#N)CC1
2. CCOc1ncccc1-c1ccc(N2CCN(C(=O)c3ccc(F)cc3C(F)F)C[C@H]2CC)c(OCCNC)n1
3. CCOc1ncccc1-c1ccc2c(c1)N(C[C@@H](C)N)CC21CCN(c2ccc(C(F)(F)F)cc2C#N)CC1
4. CCOc1ncccc1-c1ccc(N2CCN(C(=O)C3(C(F)(F)F)CCCC3)C[C@H]2CC)c(O[C@@H]2CCN(C)C2)n1

["< 0.01 µM", "< 0.01 µM", "< 0.01 µM", "0.01 to 0.1 µM"]

###

pKi: −log10 of the molar value.
For reference, the following pKi results for hMC2 receptor (Homo sapiens) were taken from various sources.

Here's what some known entries look like.
[
  {
    "compound": "CCOc1ncccc1-c1ccc2c(c1)N(C(=O)CCN)CC21CCN(c2cc(C#N)cc(C(F)(F)F)c2)CC1",
    "tested system": "hMC2 receptor (Homo sapiens)",
    "result": "5.00 to 6.00"
  },
  {
    "compound": "CCOc1ncccc1-c1ccc2c(n1)N(CCN)CC21CCN(c2ccc(C(F)(F)F)cc2C#N)CC1",
    "tested system": "hMC2 receptor (Homo sapiens)",
    "result": "> 8.00"
  },
  {
    "compound": "CCOc1ncccc1-c1ccc(N2CCN(C(=O)N3CCc4cc(Cl)cc(C#N)c43)C[C@H]2CC)c(OCCN)n1",
    "tested system": "hMC2 receptor (Homo sapiens)",
    "result": "> 8.00"
  },
  {
    "compound": "CCOc1ncccc1-c1ccc(N2CCN(C(=O)C3(C(F)(F)F)CC4CCC3C4)C[C@H]2CC)c(C(=O)NCC2CN(C)C2)n1 (some centres unmarked)",
    "tested system": "hMC2 receptor (Homo sapiens)",
    "result": "> 8.00"
  },
  {
    "compound": "CCOc1ncccc1-c1ccc2c(n1)N(C[C@@H](C)N)C(=O)C21CCN(c2ccc(C(F)(F)F)cc2C#N)CC1",
    "tested system": "hMC2 receptor (Homo sapiens)",
    "result": "> 8.00"
  },
  {
    "compound": "CCOc1ncccc1-c1ccc(N2CCN(C(=O)c3ccc(F)cc3C(F)F)C[C@H]2CC)c(C(=O)N[C@@H]2CCN(C)C2)n1",
    "tested system": "hMC2 receptor (Homo sapiens)",
    "result": "> 8.00"
  },
  {
    "compound": "CCOc1ncccc1-c1ccc(N2CCN(C(=O)c3ccc(Cl)cc3C(F)(F)F)C[C@H]2CC)c(C(=O)N[C@H]2CCNC2)c1F",
    "tested system": "hMC2 receptor (Homo sapiens)",
    "result": "> 8.00"
  },
  {
    "compound": "CCOc1ncccc1-c1ccc(N2CCN(C(=O)c3ccc(Cl)cc3N3CCC(N)CC3)C[C@H]2CC)c(C(=O)NCCN)c1",
    "tested system": "hMC2 receptor (Homo sapiens)",
    "result": "> 8.00"
  }
]

Below is a list of compounds. For each, state its recorded pKi.
1. CCOc1ncccc1-c1ccc2c(c1)N(CCN)C(=O)CC21CCN(c2ccc(C(F)(F)F)cc2C#N)CC1
2. CCOc1ncccc1-c1ccc(N2CCN(C(=O)C3(C(F)(F)F)CCC3)C[C@H]2CC)c(C(=O)NC[C@@H]2CCN2C)n1
3. CCOc1cnccc1-c1ccc(N2CCN(C(=O)c3ccc(C(F)(F)F)cc3Cl)C[C@H]2CC)c(C(=O)NCCN)c1
4. CCOc1ncccc1-c1ccc(N2CCN(C(=O)c3ccc(F)cc3C(F)(F)F)C[C@H]2CC)c(C(=O)NCCNC)c1F
5. CCOc1ncccc1-c1ccc(N2CCN(C(=O)N3CCC[C@H]3C(F)(F)F)C[C@H]2CC)c(C(=O)NC[C@@H]2CCN2C)n1
6. CCOc1ncccc1-c1ccc(N2CCN(C(=O)C3C4CC5CC(C4)CC3C5)C[C@H]2CC)c(C(=O)NC2CN(C)C2)n1 (some centres unmarked)
7. CCOc1ncccc1-c1ccc(N2CCN(C(=O)c3ccc(Cl)cc3N(C)C)C[C@H]2CC)c(C(=O)N[C@@H]2CCNC2)c1

["7.00 to 8.00", "7.00 to 8.00", "7.00 to 8.00", "> 8.00", "> 8.00", "> 8.00", "> 8.00"]

Below is a list of compounds. For each, state its recorded pKi.
1. CCOc1ccc(C(=O)N2CCN(c3ccc(-c4cccnc4OCC)nc3OCCN(C)C)[C@H](CC)C2)c(C(F)(F)F)n1
2. CCOc1ccc(C(=O)N2CCN(c3ccc(-c4cccnc4OCC)nc3C(=O)NC[C@@H]3CCN3)[C@H](CC)C2)c(C(F)(F)F)n1
3. CCOc1ncccc1-c1ccc2c(c1)N(CCNC)C(=O)CC21CCN(c2ccc(C(F)(F)F)cc2C#N)CC1

["> 8.00", "> 8.00", "7.00 to 8.00"]

Below is a list of compounds. For each, state its recorded pKi.
1. CCOc1ncccc1-c1ccc(N2CCN(C(=O)c3ccc(F)cc3C(F)(F)F)C[C@H]2CC)c(C(=O)NCCN(C)C)c1F
2. CCOc1ncccc1-c1ccc(N2CCN(C(=O)N3CCCC[C@H]3C(F)(F)F)C[C@H]2CC)c(C(=O)N[C@H]2CCN(C)C2)n1
3. CCOc1ncccc1-c1ccc(N2CCN(C(=O)O[C@@H](C(C)(C)C)C(F)(F)F)C[C@H]2CC)c(C(=O)N[C@@H]2CN3CCC2CC3)n1
4. CCOc1ccccc1-c1ccc(N2CCN(C(=O)C3(C(F)(F)F)CCC3)C[C@H]2CC)c(C(=O)N[C@@H]2CN3CCC2CC3)n1
5. CCOc1ccccc1-c1ccc(N2CCN(C(=O)N3CCCC[C@H]3C(F)(F)F)C[C@H]2CC)c(C(=O)N[C@H]2CCN(C)C2)n1
6. CCOc1ncccc1-c1ccc(N2CC[C@H](Oc3ccc(C(F)(F)F)cc3C#N)C[C@@H]2C2CC2)c(C(=O)N[C@@H]2CCN(C)C2)n1 (mixture of isomers)
7. CCOc1ccccc1-c1ccc(N2CCN(C(=O)c3ccc(Cl)cc3C(F)(F)F)C[C@H]2CC)c(C(=O)NCCN)c1

1. > 8.00
2. > 8.00
3. > 8.00
4. > 8.00
5. > 8.00
6. > 8.00
7. > 8.00

For hMC2 receptor (Homo sapiens), provide pKi of CCOc1ncccc1-c1ccc(N2CCN(C(=O)c3ccc(C)cc3Cl)C[C@H]2CC)c(C(=O)N[C@@H]2CCNC2)c1F please. > 8.00
